Please respond with reported max response for every item in the list.
- system-tested: Retinoic acid receptor RXR-alpha (Homo sapiens) (UniProt P19793)
- Sequence (P19793 whole entry, looked up): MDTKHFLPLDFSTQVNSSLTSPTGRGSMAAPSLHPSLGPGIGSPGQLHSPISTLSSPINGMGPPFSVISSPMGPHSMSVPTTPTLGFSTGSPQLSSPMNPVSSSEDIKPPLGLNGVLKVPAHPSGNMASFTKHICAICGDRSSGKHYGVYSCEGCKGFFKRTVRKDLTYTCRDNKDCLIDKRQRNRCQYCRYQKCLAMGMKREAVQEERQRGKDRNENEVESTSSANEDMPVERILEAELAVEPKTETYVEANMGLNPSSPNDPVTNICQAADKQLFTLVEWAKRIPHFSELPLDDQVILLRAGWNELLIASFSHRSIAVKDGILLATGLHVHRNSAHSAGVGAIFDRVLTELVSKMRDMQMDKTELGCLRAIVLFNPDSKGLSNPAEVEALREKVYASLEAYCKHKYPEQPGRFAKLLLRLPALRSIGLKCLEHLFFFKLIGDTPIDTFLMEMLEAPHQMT
- method-description: qHTS assay for small molecule antagonists of retinoid X receptor alpha signaling (AID 588546);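 further: cells stimulated with 9-cis-retinoic acid as agonist; on the % scale 0 is the no-effect control and ±100 the full control effect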
- experimental-context: HEK293T RXRa-UAS-bla, beta-lactamase ratio, antagonist mode
Inconclusive results are not listed.
Give bare numbers, in %.

Batch request: max response per item, same order as input.
1. CCCC(C)(COC(N)=O)COC(N)=O
2. Nc1ccc([As](=O)(O)O)cc1
3. C[C@]1(O)CC[C@H]2[C@@H]3CCC4=CC(=O)CC[C@]4(C)[C@@]3(F)[C@@H](O)C[C@@]21C
4. C[C@]12CCC(=O)C=C1CC[C@@H]1[C@@H]2CC[C@]2(C)C(=O)CC[C@@H]12
5. NCCc1ccc(O)cc1
6. Oc1ccc(Cl)cc1

Given back:
[-3.87, -8.6, -6.75, 1.25, -2.52, -3.06]

---

- method-description: qHTS Assay for Lipid Storage Modulators (AID 1519); further: on the % scale 0 is the no-effect control and ±100 the full control effect
- experimental-context: Drosophila S3 cells, BODIPY lipid droplet/cell ratio, laser cytometry; at 57.5 µM (top of the series); cells loaded with oleic acid
Results filed as inconclusive are left out.
endpoint-name: activity change, negative = inhibition (%)
Answers are plain numbers, in %.

Worked set:
C=C(C)[C@H]1CN[C@H](C(=O)O)[C@H]1CC(=O)O ... 0.0201
O=C(O)CCCc1ccc(N(CCCl)CCCl)cc1 ... 2.66

Batch request: activity change, negative = inhibition per item, same order as input.
1. c1ccc2c(c1)sc1ccccc12
2. COc1cc(OC)c(OC)cc1C=O

Given back:
[7.62, 10.2]

---

- Tested on: CP203
- method-description: qHTS profiling for inhibitors of Plasmodium falciparum proliferation (AID 504749); further: nearly all actives have a fitted effect of over 60% in size
- experimental-context: P. falciparum in erythrocytes, SYBR Green DNA, 72 h; series mostly up to 28.7 µM
Results filed as inconclusive are left out. The source made the active and inactive calls. Calls follow the shape of the dose curve; as a rule, active = well fitted inhibition curve with a large enough effect; inconclusive = small, poorly fitted or top-dose-only effect; inactive = flat fitted curve, though single readings scatter.
Lab note: assign the record to one of t for active, f for inactive

COP(=S)(OC)Oc1ccc(S(=O)(=O)N(C)C)cc1 ... f

Asked: Query: recorded result category for "O=C1c2ccccc2C(=O)C1C(=O)C(c1ccccc1)c1ccccc1" in this test
Given back: f

Asked: Query: recorded result category for "C[C@]12CCC(=O)C=C1CC[C@@H]1[C@@H]2CC[C@]2(C)C(=O)CC[C@@H]12" in this test
Given back: f

Asked: Query: recorded result category for NC(=O)CS(=O)C(c1ccccc1)c1ccccc1 (stereo not drawn) in this test
Given back: f

Asked: Query: recorded result category for "CN1C[C@H](C(=O)N[C@]2(C)O[C@@]3(O)[C@@H]4CCCN4C(=O)[C@H](Cc4ccccc4)N3C2=O)C=C2c3cccc4[nH]cc(c34)C[C@H]21" in this test
Given back: t

Asked: Query: recorded result category for "NCCc1ccc(O)cc1" in this test
Given back: f

Asked: Query: recorded result category for "C=C(C)[C@H]1CN[C@H](C(=O)O)[C@H]1CC(=O)O" in this test
Given back: f

Asked: Query: recorded result category for "O=C1CN=C(c2ccccc2)c2cc([N+](=O)[O-])ccc2N1" in this test
Given back: f

---

- method-description: Drug repurposing screens with cells derived from glioblastoma tumor samples (AID 1345199); further: on the % scale 0 is the no-effect control and ±100 the full control effect; nearly all actives have a fitted effect of over 40% in size
- experimental-context: GBM patient neurospheres viability, ATP luminescence, 48 h; at 45.9 µM (top of the series); tumour line D
Results filed as inconclusive are left out.
endpoint-name: activity, negative = cell killing (%)
One number for each entry, in %.

Worked set:
CC(NC(C)(C)C)C(=O)c1cccc(Cl)c1 (stereo unspecified) ... 3.9
Oc1ccc(Cl)cc1 ... -24.9
CC(C)NC(C)C ... 4.87

Batch request: activity, negative = cell killing per item, same order as input.
1. Nc1ccccc1C(=O)O
2. COP(=S)(OC)SCN1C(=O)c2ccccc2C1=O
3. NC1=NC(=O)C(c2ccccc2)O1 (stereo unspecified)
4. CNCC(=O)c1ccc(O)c(O)c1

Given back:
-8.9
-8.89
-7.44
-3.6

Batch request: activity, negative = cell killing per item, same order as input.
1. CCC1(c2ccc(N)cc2)CCC(=O)NC1=O (stereo unspecified)
2. COC(=O)[C@@H](N)CCCN/C(N)=N/[N+](=O)[O-]
3. CCCCCCCCCC(=O)O[C@H]1CC[C@H]2[C@@H]3CCC4=CC(=O)CC[C@@H]4[C@H]3CC[C@]12C
4. COc1ccc2c(c1OC)C(=O)O[C@H]2[C@@H]1c2cc3c(cc2CCN1C)OCO3
5. O=P1(N(CCCl)CCCl)NCCCO1 (stereo unspecified)
6. O=[N+]([O-])O[C@H]1CO[C@H]2[C@@H]1OC[C@H]2O[N+](=O)[O-]
7. CC(C)N(CCC(C(N)=O)(c1ccccc1)c1ccccn1)C(C)C (stereo unspecified)
8. CC(C)(C)c1ccc(O)cc1

Given back:
-18.3
-1.49
-5.94
-4.13
1.42
3.62
4.58
7.61

Batch request: activity, negative = cell killing per item, same order as input.
1. Clc1ccc2c(c1)C(c1ccccc1)=NCc1nncn1-2
2. O=c1[nH]oc2c1CCNC2
3. CCN(CCO)CCn1c(Cc2ccccc2)nc2c1c(=O)n(C)c(=O)n2C
4. COc1cccc([C@@]2(O)CCCC[C@@H]2CN(C)C)c1
5. C[C@]1(O)CC[C@H]2[C@@H]3CCC4=CC(=O)CC[C@]4(C)[C@@]3(F)[C@@H](O)C[C@@]21C
6. Nc1ccccc1
7. C[C@]12CC[C@@H]3c4ccc(OC(=O)N(CCCl)CCCl)cc4CC[C@H]3[C@@H]1CC[C@@H]2O
8. CN1C(=O)CC(=O)N(c2ccccc2)c2cc(Cl)ccc21

Given back:
1. 3.75
2. -5.63
3. -3.15
4. 6.21
5. -21.3
6. -2.5
7. -5.83
8. -2.22

---

- method-description: qHTS of pediatric cancer cell lines to identify multiple opportunities for drug repurposing: Primary screen for Rh41 cells (AID 1347108); further: nearly all actives have a fitted effect of over 70% in size
- experimental-context: Rh41 rhabdomyosarcoma viability, CellTiter-Glo luminescence, 48 h; series mostly up to 46 µM
Results filed as inconclusive are left out. The source made the active and inactive calls. Calls come from the whole dose curve; as a rule, active = well fitted cell-killing curve with a large enough effect; inconclusive = small, poorly fitted or top-dose-only effect; inactive = no such curve, though single readings can be large or run the other way.
Lab note: assign the record to one of active, inactive

Asked: Query: recorded result category for COc1cccc2c1C(=O)c1c(O)c3c(c(O)c1C2=O)C[C@@](O)(C(=O)CO)CC3OC1CC(N2CCOC(OC)C2)C(O)C(C)O1 (stereo not given in full) in this test
Given back: active

Asked: Query: recorded result category for CCC1(c2ccc(N)cc2)CCC(=O)NC1=O (stereo not given) in this test
Given back: inactive

Asked: Query: recorded result category for "CC(C)NC(C)C" in this test
Given back: inactive

Asked: Query: recorded result category for "COC(=O)C(Cl)C(=O)OC" in this test
Given back: inactive

Asked: Query: recorded result category for "C=C(C)[C@H]1CN[C@H](C(=O)O)[C@H]1CC(=O)O" in this test
Given back: inactive

---

- method-description: qHTS of pediatric cancer cell lines to identify multiple opportunities for drug repurposing: Primary screen for DAOY cells (AID 1347090); further: nearly all actives have a fitted effect of over 55% in size
- experimental-context: DAOY medulloblastoma viability, CellTiter-Glo luminescence, 48 h; series mostly up to 46 µM
Inconclusive results are not listed. Calls of active or inactive are those of the source. Calls follow the shape of the dose curve; as a rule, active = well fitted cell-killing curve with a large enough effect; inconclusive = small, poorly fitted or top-dose-only effect; inactive = flat fitted curve, though single readings scatter.
Lab note: assign the record to one of 1 (active), -1 (inactive)

Examples from the recorded data:
Clc1cccc(SC2CCNCC2)n1 ... -1
CNCC(=O)c1ccc(O)c(O)c1 ... -1
CC(C(=O)c1ccccc1)N(C)C (stereo unspecified) ... -1

Asked: Query: recorded result category for "c1ccc(CN2CCNCC2)cc1" in this test
Given back: -1

Asked: Query: recorded result category for "CCCCCCC(=O)CCCCCC/C=C/C[C@@H](O)[C@H](O)[C@@](N)(CO)C(=O)O" in this test
Given back: -1

Asked: Query: recorded result category for "O=C(O)CCCc1ccc(N(CCCl)CCCl)cc1" in this test
Given back: -1

Asked: Query: recorded result category for "COc1cccc(C(=O)CCN[C@@H](C)[C@H](O)c2ccccc2)c1" in this test
Given back: 1

Asked: Query: recorded result category for "NNc1ccccc1" in this test
Given back: -1

Asked: Query: recorded result category for "O=C(N/N=C/c1ccc([N+](=O)[O-])o1)c1cc([N+](=O)[O-])cc([N+](=O)[O-])c1O" in this test
Given back: -1

Asked: Query: recorded result category for COc1cccc2c1C(=O)c1c(O)c3c(c(O)c1C2=O)C[C@@](O)(C(=O)CO)CC3OC1CC(N2CCOC(OC)C2)C(O)C(C)O1 (stereo partly specified) in this test
Given back: 1

Asked: Query: recorded result category for "O=C1c2ccccc2C(=O)C1C(=O)C(c1ccccc1)c1ccccc1" in this test
Given back: 1

Asked: Query: recorded result category for CCCOC(=O)c1cncn1C(C)c1ccccc1 (stereo unspecified) in this test
Given back: -1

Asked: Query: recorded result category for "Cc1ncsc1CCCl" in this test
Given back: -1

Asked: Query: recorded result category for O=P1(N(CCCl)CCCl)NCCCO1 (stereo unspecified) in this test
Given back: -1

Asked: Query: recorded result category for "O=C(Nc1ccc(Br)cc1)c1cc(Br)cc(Br)c1O" in this test
Given back: 1

Asked: Query: recorded result category for "CCC(C)(C)c1ccc(O)cc1" in this test
Given back: -1

Asked: Query: recorded result category for "CC(C)NC(C)C" in this test
Given back: -1
